- Tested on: Ba/F3-KDR-transfected cells (Homo sapiens)
- Sequence (P35968 whole entry, change not shown): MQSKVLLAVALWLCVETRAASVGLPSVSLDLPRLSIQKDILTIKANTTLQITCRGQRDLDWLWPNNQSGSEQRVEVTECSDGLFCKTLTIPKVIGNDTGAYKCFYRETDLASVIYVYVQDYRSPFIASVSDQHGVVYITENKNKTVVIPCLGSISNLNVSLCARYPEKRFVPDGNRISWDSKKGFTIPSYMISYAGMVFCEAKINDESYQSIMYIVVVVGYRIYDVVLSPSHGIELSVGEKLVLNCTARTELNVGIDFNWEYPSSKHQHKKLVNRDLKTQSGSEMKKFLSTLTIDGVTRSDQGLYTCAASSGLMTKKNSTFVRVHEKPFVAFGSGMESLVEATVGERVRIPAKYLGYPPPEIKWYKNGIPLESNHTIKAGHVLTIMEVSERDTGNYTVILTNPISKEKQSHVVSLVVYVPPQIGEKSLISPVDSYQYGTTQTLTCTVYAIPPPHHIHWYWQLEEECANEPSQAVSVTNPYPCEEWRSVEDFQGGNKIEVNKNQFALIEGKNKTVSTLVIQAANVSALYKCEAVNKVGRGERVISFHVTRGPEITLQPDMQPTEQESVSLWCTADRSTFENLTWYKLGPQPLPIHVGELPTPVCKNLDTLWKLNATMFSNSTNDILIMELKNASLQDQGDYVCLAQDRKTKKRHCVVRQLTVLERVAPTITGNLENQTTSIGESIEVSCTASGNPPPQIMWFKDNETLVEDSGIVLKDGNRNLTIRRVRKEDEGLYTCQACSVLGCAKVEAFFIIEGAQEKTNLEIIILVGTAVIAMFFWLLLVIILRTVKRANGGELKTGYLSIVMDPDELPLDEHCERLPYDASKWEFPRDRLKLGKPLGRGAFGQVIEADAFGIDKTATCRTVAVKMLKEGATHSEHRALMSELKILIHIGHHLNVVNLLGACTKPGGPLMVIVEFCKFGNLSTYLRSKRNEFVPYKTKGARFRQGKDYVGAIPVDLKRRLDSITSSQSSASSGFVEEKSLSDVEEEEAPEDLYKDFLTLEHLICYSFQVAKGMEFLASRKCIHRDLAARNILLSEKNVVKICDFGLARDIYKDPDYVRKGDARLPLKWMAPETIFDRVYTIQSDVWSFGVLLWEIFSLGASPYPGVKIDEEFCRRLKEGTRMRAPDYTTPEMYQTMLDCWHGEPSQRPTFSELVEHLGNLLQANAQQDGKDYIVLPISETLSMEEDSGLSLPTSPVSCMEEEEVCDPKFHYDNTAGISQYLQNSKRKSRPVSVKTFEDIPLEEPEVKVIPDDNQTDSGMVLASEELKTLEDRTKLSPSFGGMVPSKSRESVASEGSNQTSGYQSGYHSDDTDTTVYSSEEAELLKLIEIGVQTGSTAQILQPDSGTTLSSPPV
- Experimental protocol: Ba/F3-KDR (minus IL3) cellular proliferation assay, Alamar Blue
- Assay type: cell-based
- Test context: minus IL3
Assay metric: BAF3-KDR (MIN IL3) 384 well pIC50

Compound: COc1cc(OC)cc(N(CCCO)c2ccc3ncc(-c4cnc(N5CCN(C)CC5)c(C)c4)nc3c2)c1 [Compound 135]
BAF3-KDR (MIN IL3) 384 well pIC50: 5.33

Compound: COc1cc(OC)cc(N(CCO)c2ccc3ncc(-c4ccc(OC)nc4)nc3c2)c1 [Compound 111]
BAF3-KDR (MIN IL3) 384 well pIC50: <5

Compound: COc1cc(OC)cc(N(CC2CC2)c2ccc3ncc(-c4cc[nH]c4)nc3c2)c1 [Compound 36]
BAF3-KDR (MIN IL3) 384 well pIC50: <5

Compound: COc1cc(OC)cc(N(CCNC(C)C)c2ccc3ncc(C(=O)N4CCN(C)CC4)nc3c2)c1 [Compound 179]
BAF3-KDR (MIN IL3) 384 well pIC50: <5

Compound: COc1cc(OC)cc(N(CCO)c2ccc3ncc(-c4ccc(N5CCNCC5)cc4)nc3c2)c1 [Compound 166]
BAF3-KDR (MIN IL3) 384 well pIC50: 5.55

(Q) Name the reported BAF3-KDR (MIN IL3) 384 well pIC50 value associated with the compound COc1cc(OC)cc(N(CCCNC(C)C)c2ccc3ncc(-c4ccnc(NC(=O)NC(C)C)c4)nc3c2)c1 [Compound 131]
(A) 5.37

(Q) Name the reported BAF3-KDR (MIN IL3) 384 well pIC50 value associated with the compound COc1cc(OC)cc(N(CC2CC2)c2ccc3ncc(Nc4nncs4)nc3c2)c1 [Compound 102]
(A) <5

(Q) Name the reported BAF3-KDR (MIN IL3) 384 well pIC50 value associated with the compound COc1cc(OC)cc(N(CCCNCC(=O)O)c2ccc3ncc(-c4ccnc(C(=O)NCCCCN)c4)nc3c2)c1 [Compound 44]
(A) <5

(Q) Name the reported BAF3-KDR (MIN IL3) 384 well pIC50 value associated with the compound COc1cc(OC)cc(N(CC2CC2)c2ccc3ncc(C(=O)Nc4cncn4C)nc3c2)c1 [Compound 27]
(A) <5

(Q) Name the reported BAF3-KDR (MIN IL3) 384 well pIC50 value associated with the compound COc1cc(OC)cc(N(CCNC(C)C)c2ccc3ncc(-c4cccnc4)nc3c2)c1 [Compound 10]
(A) 5.56

(Q) Name the reported BAF3-KDR (MIN IL3) 384 well pIC50 value associated with the compound COc1cc(OC)cc(N(CCNC(C)C)c2ccc3ncc(-n4cnc(COC(C)=O)c4)nc3c2)c1 [Compound 167]
(A) <5

(Q) Name the reported BAF3-KDR (MIN IL3) 384 well pIC50 value associated with the compound COc1cc(OC)cc(N(CC2CC2)c2ccc3ncc(-c4cccn4C)nc3c2)c1 [Compound 103]
(A) <5

(Q) Name the reported BAF3-KDR (MIN IL3) 384 well pIC50 value associated with the compound COc1cc(OC)cc(N(CC2CC2)c2ccc3ncc(-c4nnn(C)n4)nc3c2)c1 [Compound 82]
(A) <5

---

Listed below: IC50 values for each entry.
- Tested on: UniProt:P22455
- Sequence (P22455 22-802): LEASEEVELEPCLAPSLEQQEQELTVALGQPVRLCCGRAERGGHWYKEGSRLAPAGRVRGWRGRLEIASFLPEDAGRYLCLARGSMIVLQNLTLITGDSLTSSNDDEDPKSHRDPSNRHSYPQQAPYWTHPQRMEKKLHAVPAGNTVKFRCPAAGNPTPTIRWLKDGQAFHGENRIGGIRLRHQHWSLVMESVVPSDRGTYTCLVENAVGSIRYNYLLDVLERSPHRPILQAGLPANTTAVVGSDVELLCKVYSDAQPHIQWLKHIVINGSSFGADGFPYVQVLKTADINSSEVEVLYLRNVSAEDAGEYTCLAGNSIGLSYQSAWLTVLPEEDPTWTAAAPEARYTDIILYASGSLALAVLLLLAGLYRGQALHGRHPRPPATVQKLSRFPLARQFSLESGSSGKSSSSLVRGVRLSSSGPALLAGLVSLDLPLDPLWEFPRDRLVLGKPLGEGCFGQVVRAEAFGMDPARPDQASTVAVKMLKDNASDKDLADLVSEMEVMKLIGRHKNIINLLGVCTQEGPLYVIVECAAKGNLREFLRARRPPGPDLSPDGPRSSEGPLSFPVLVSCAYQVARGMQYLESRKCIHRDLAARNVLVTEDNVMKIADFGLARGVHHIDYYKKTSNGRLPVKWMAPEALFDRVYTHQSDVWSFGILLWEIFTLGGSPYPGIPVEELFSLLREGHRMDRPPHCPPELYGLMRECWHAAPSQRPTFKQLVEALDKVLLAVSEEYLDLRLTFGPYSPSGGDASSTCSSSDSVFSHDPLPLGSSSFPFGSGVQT
- Experimental protocol: FGFR4 (enzymatic assay), TR-FRET
- Format: biochemical
- Test context: read-out: FGFR 4 pIC50 (converted)

Check out these entries, answers already filled in.
Smiles input: COc1cc(OC)cc(N(CCNC(C)C)c2ccc3ncc(C(=O)N4CCOCC4)nc3c2)c1
IC50: > 1 µM

Smiles input: COc1cc(OC)cc(N(CC2CC2)c2ccc3ncc(-c4cnc5[nH]ccc5c4)nc3c2)c1
IC50: > 10 µM

Smiles input: COc1cc(OC)cc(N(CC2CC2)c2ccc3ncc(-c4cccn4C)nc3c2)c1
IC50: > 1 µM

Let us examine a further case.
(Q) Name the reported IC50 value associated with the molecule COc1cc(OC)cc(N(CC2CC2)c2ccc3ncc(-c4cnnn4C)nc3c2)c1
(A) > 1 µM

---

- Tested on: Ba/F3-FGFR3-transfected cells (Homo sapiens)
- Sequence (P22607 whole entry, change not shown): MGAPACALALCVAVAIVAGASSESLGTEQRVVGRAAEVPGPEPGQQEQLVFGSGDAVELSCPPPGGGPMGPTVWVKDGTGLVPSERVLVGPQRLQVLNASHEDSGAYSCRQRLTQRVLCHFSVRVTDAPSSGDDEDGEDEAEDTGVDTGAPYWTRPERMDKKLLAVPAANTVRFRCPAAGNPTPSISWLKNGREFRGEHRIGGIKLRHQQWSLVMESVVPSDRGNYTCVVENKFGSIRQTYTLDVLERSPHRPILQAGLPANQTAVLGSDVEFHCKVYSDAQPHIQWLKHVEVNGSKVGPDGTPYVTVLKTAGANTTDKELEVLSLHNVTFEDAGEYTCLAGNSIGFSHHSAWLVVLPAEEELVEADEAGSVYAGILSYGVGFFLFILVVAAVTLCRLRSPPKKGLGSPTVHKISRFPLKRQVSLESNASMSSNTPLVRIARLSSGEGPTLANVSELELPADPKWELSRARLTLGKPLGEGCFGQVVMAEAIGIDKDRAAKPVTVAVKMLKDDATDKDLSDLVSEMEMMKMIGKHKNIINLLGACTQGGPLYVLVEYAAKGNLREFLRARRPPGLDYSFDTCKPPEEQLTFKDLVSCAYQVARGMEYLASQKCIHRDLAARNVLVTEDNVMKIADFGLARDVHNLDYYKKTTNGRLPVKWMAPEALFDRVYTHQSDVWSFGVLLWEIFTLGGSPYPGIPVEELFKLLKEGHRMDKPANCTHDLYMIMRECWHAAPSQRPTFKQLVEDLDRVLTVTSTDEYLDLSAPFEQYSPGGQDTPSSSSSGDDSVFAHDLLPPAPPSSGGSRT
- Experimental protocol: Ba/F3-FGFR3 (minus IL3) cellular proliferation assay, Alamar Blue
- Format: cell-based
- Test context: minus IL3, 384 well
- Method: Ba/F3-FGFR3 (Minus IL3 or Plus IL3) (Cellular Proliferation Assay) Cells were put in an incubator at 37° C. and 5% CO2. After 24 hours, 10 μl of Alamar Blue solution (0.5 mM K3Fe(CN)6, 0.5 mM KaFe(CN)6, 0.15 mM Resazurin and 100 mM Phosphate Buffer) was added to the wells, incubated for 4 hours at 37° C. and 5% CO2 before RFU's (Relative Fluorescence Units) (ex. 540 nm., em. 590 nm.) were measured in a flurorescence plate reader. […]
Assay metric: BAF3-FGFR 3 (MIN IL3) 384 well pIC50

Smiles input: COc1cc(OC)cc(N(CC2CC2)c2ccc3ncc(-n4cccn4)nc3c2)c1
Tested on: Ba/F3-FGFR3-transfected cells (Homo sapiens)
BAF3-FGFR 3 (MIN IL3) 384 well pIC50: <5

Smiles input: COc1cc(OC)cc(N(CCCNCC(F)(F)F)c2ccc3ncc(-c4ccnc(C(=O)NCCCN)c4)nc3c2)c1
Tested on: Ba/F3-FGFR3-transfected cells (Homo sapiens)
BAF3-FGFR 3 (MIN IL3) 384 well pIC50: <5

Smiles input: COc1cc(OC)cc(N(CC2CC2)c2ccc3ncc(Nc4nncs4)nc3c2)c1
Tested on: Ba/F3-FGFR3-transfected cells (Homo sapiens)
BAF3-FGFR 3 (MIN IL3) 384 well pIC50: <5

(Q) Name the reported BAF3-FGFR 3 (MIN IL3) 384 well pIC50 value associated with the compound COc1cc(OC)cc(N(CC2CC2)c2ccc3ncc(-c4nccn4C)nc3c2)c1
(A) <5

(Q) Name the reported BAF3-FGFR 3 (MIN IL3) 384 well pIC50 value associated with the compound COc1cc(OC)cc(N(CCO)c2ccc3ncc(-c4ccc(OC)nc4)nc3c2)c1
(A) ~6.17

(Q) Name the reported BAF3-FGFR 3 (MIN IL3) 384 well pIC50 value associated with the compound COc1cc(OC)cc(N(CC2CC2)c2ccc3ncc(-n4nccc4C)nc3c2)c1
(A) <5

---

Listed below: IC50 values for each entry.
- Tested on: FGFR1 (h) (Homo sapiens, UniProt P11362)
- Sequence (P11362 22-822): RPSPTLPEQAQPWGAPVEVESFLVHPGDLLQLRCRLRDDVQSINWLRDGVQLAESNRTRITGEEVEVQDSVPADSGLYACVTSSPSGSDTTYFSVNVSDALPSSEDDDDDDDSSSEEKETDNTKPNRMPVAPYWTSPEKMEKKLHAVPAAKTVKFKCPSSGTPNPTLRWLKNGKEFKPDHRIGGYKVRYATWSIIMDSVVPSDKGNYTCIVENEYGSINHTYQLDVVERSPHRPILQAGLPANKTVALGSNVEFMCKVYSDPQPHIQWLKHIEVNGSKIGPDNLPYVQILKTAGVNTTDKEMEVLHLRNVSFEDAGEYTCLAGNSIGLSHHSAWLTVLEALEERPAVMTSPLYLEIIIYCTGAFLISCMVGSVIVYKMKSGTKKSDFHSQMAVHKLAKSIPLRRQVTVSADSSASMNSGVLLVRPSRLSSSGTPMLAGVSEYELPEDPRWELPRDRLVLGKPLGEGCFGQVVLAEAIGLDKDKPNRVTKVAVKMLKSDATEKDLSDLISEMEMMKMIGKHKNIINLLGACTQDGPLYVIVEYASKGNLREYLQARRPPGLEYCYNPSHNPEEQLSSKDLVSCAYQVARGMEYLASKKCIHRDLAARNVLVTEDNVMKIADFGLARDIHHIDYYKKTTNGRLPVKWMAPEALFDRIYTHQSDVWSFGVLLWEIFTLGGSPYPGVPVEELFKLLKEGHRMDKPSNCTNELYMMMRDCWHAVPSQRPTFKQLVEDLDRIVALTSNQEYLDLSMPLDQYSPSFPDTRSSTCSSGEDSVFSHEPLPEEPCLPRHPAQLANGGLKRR
- Experimental protocol: FGFR1 (enzymatic assay), TR-FRET
- Assay type: biochemical
- Test context: read-out: FGFR 1 pIC50 (converted)
- Method: In a final reaction volume of 30 μL, FGFR1 (h) (25 ng/ml) was incubated with 50 mM HEPES pH 7.5, 6 mM MnCl2, 1 mM DTT, 0.1 mM Na3VO4, 0.01% Triton-X-100, 500 nM Btn-Flt3 and 5 μM ATP in the presence of compound (1% DMSO final). […] Time-Resolved Fluorescence Resonance Energy Transfer (TR-FRET) signal (ex340 nm. Em 620 nm, em 655 nm) was measured afterwards and results are expressed in RFU (Relative Fluorescence Units).

Compound: COc1cc(OC)cc(N(CCO)c2ccc3ncc(-c4ccc(N5CCNCC5)nc4)nc3c2)c1 [Compound 165]
Endpoint result: 3.89 nM
//
Compound: COc1cc(OC)cc(N(CC2CC2)c2ccc3ncc(N4CCN(CCO)CC4)nc3c2)c1 [Compound 49]
Endpoint result: 316 nM
//
Compound: COc1cc(OC)cc(N(CCN2CCOCC2)c2ccc3ncc(-c4ccc(NC(=O)N5CCOCC5)nc4)nc3c2)c1 [Compound 35]
Endpoint result: 12 nM

(Q) Name the reported IC50 value associated with the compound COCCCN(c1cc(OC)cc(OC)c1)c1ccc2ncc(-c3ccn(C)c3)nc2c1 [Compound 3]
(A) 7.76 nM

---

- Tested on: FGFR2 (h) (Homo sapiens, UniProt P21802)
- Sequence (P21802 22-821): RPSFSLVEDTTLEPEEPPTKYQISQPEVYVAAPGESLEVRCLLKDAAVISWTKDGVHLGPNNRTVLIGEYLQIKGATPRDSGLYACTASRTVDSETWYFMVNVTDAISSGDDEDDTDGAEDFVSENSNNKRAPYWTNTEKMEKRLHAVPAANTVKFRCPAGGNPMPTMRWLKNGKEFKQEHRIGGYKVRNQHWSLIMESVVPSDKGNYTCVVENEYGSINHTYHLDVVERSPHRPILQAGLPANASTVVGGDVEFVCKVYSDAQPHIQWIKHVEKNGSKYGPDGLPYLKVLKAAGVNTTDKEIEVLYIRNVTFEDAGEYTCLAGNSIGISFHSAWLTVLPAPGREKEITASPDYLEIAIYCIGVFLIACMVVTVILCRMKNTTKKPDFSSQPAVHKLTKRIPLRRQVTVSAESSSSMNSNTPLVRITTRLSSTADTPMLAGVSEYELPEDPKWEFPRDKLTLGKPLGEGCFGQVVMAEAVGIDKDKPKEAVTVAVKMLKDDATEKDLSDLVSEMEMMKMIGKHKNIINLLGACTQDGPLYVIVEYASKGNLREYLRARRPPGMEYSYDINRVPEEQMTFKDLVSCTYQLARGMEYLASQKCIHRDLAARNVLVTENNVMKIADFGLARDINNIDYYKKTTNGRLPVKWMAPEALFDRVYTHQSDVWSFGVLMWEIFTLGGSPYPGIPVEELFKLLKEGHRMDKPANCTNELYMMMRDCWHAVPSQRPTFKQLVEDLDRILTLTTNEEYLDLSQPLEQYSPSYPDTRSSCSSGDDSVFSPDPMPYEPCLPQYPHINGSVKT
- Experimental protocol: FGFR2 (enzymatic assay), TR-FRET
- Format: biochemical
- Test context: read-out: FGFR 2 pIC50 (converted)
Listed below: IC50 values for each entry.

Check out these entries, answers already filled in.
Smiles input: COc1cc(OC)cc(N(CC2CC2)c2ccc3ncc(-c4cccn4C)nc3c2)c1
IC50: > 1 µM
--
Smiles input: COc1cc(OC)cc(N(CC2CC2)c2ccc3ncc(-c4nnnn4C)nc3c2)c1
IC50: > 1 µM

(Q) Name the reported IC50 value associated with the compound COc1cc(OC)cc(N(CC2CC2)c2ccc3ncc(Nc4nncs4)nc3c2)c1
(A) > 1 µM

---

Structures can show the parent of a compound that is named as a salt.
Assay metric: melting point (°C)
Respond with the bare value in °C.

Molecule: COc1cc(OC)cc(N(CCCNC(C)C)c2ccc3ncc(-c4ccnc(NC(=O)NC(C)C)c4)nc3c2)c1
Assay metric: melting point
Unit tag: °C
Endpoint result: 155
--
Molecule: COc1cc(OC)cc(N(CC2CC2)c2ccc3ncc(-n4cccn4)nc3c2)c1
Assay metric: melting point
Unit tag: °C
Endpoint result: 160
--
Molecule: COc1cc(OC)cc(N(CCNC(C)C)c2ccc3ncc(-c4ccnc(C(=O)NCCCN)c4)nc3c2)c1 (as salt: HCl) (hydrate or solvate)
Assay metric: melting point
Unit tag: °C
Endpoint result: 188
--
Molecule: CNC(=O)c1cc(-c2cnc3ccc(N(CCN4CCCC4=O)c4cc(OC)cc(OC)c4)cc3n2)ccn1
Assay metric: melting point
Unit tag: °C
Endpoint result: 176
--
Molecule: CNc1ccc(-c2cnc3ccc(N(CCCO)c4cc(OC)cc(OC)c4)cc3n2)cn1
Assay metric: melting point
Unit tag: °C
Endpoint result: 188
--
Molecule: COc1cc(OC)cc(N(CCCNCC(F)(F)F)c2ccc3ncc(-c4ccnc(Cl)c4)nc3c2)c1
Assay metric: melting point
Unit tag: °C
Endpoint result: 130

Let us examine a further case.
(Q) Name the reported melting point value associated with the molecule COc1cc(OC)cc(N(CCCO)c2ccc3ncc(-c4ccc(C)nc4)nc3c2)c1
(A) 166
